Field: LD50. Provide a value for each of the molecules that follow.

Request: Param readout= LD50; system= EGFR (Balb/c mice); entry= COc1cc2ncnc(Nc3cccc(C#N)c3)c2cc1OC ; returns value.
Result: > 153 mg/kg

Request: Param readout= LD50; system= EGFR (Balb/c mice); entry= Cc1ccc2ncnc(Nc3cccc(Cl)c3)c2c1 ; returns value.
Result: > 400 mg/kg

Request: Param readout= LD50; system= EGFR (Balb/c mice); entry= Cc1ccc2ncnc(Nc3cccc(C(F)(F)F)c3)c2c1 ; returns value.
Result: > 400 mg/kg

Request: Param readout= LD50; system= EGFR (Balb/c mice); entry= COc1cc2ncnc(Nc3cccc(Cl)c3)c2cc1OC ; returns value.
Result: > 200 mg/kg

Taken from the Kinase Knowledgebase extract (Sharma et al. 2016).
